- target_desc: RPA32 winged-helix domain (RPA32-WH) (amino acids 202-270) (UniProt P15927 202-270)
- Sequence (P15927 202-270): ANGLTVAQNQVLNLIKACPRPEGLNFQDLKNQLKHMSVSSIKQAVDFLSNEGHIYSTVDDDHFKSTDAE
- assay_text: FP
No end group written: not given here.
reported_property: Kd (µM)
API: value field is a number in µM; no unit string.

[in] // Input: LTEEQRKKIEENRQKALARRAEKLLA (also: fluorescein-labeled, position not given here) [SMARCAL peptide] . Output its Kd only.
[out] 13.5
